Items are presented alongside their recorded pEC50.
# Target Under Test: T1, hPD-1-Fc (human, UniProt Q15116 25-167)
# T1 construct: domain: IgV domain; also called human PD-1-Fc; not shown: human IgG1 Fc
# T1 sequence (Q15116 25-167 limits assumed): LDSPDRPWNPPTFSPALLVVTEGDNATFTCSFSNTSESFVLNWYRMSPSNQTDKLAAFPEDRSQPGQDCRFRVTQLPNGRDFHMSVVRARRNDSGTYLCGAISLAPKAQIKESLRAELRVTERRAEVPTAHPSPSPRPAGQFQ
# Assay Name: ELISA, hPD-1-Fc coated
Answer as the number alone; pEC50 is minus log10 of concentration in mol/L.

Completed entries (count: 3):
19B10 (antibody, human IgG1, V domains shown) VH: EVQLLESGGGLVQPGGSLRLSCAASGFTFSSYAMHWVRQAPGKGLEWVSGISNSGGNTYYADSVKGRFTISRDNSKNTLYLQMNSLRAEDTAVYYCARDNYYYYMDVWGKGTTVTVSS VL: DIQMTQSPSSLSASVGDRVTITCRASQSVSTWLAWYQQKPGKAPKLLIYAASNLETGVPSRFSGSGSGTDFTLTISSLQPEDFATYYCQQTYSTPYTFGQGTKLEIK ... 9.73
23A11 (antibody, human IgG1, V domains shown) VH: QVQLVQSGAEVKKPGSSVKVSCKASGYTFTDYSLHWVRQAPGQGLEWMGEVIPMFDTAYYAQTFQGRVTITADESTSTAYMELSSLRSEDTAVYYCAREPFTMVRGGRYYYYGMDVWGQGTTVTVSS VL: DIQMTQSPSSLSASVGDRVTITCRASQNINKNLNWYQQKPGKAPKLLIYDASNLQSGVPSRFSGSGSGTDFTLTISSLQPEDFATYYCQHSETFGQGTKVEIK ... 9.78
24H9 (antibody, human IgG1, V domains shown) VH: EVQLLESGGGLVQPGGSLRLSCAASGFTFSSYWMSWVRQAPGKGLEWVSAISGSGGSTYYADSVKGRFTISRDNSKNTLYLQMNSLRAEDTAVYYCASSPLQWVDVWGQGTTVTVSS VL: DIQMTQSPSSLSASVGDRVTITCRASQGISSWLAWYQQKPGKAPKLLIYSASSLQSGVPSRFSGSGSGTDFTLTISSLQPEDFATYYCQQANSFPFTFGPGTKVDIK ... 9.89

Fill blank: measured pEC50 of the binder 23A8 (antibody, human IgG1, V domains shown) VH: EVQLLESGGGLVQPGGSLRLSCAASGFTFSSSAMHWVRQAPGKGLEWVSGISGSGSSTYYADSVKGRFTISRDNSKNTLYLQMNSLRAEDTAVYYCARDNNYYYYMDVWGKGTTVTVSS VL: DIQMTQSPSSLSASVGDRVTITCRASQSIGTWLAWYQQKPGKAPKLLIYAASTLRSGVPSRFSGSGSGTDFTLTISSLQPEDFATYYCQQSYSTPYTFGQGTKLEIK is ____.
9.87

Fill blank: measured pEC50 of the binder 19B6 (antibody, V domains shown) VH: QVQLVQSGAEVKKPGASVKVSCKASGYTFTGYYMHWVRQAPGQGLEWMGIINPSGGSTSYAQKFQGRVTMTRDTSTSTVYMELSSLRSEDTAVYYCAKTAGYDWLPSGLGMDVWGQGTTVTVSS VL: DIQMTQSPSSLSASVGDRVTITCRASQSINSWLAWYQQKPGKAPKLLIYYASSLQSGVPSRFSGSGSGTDFTLTISSLQPEDFATYYCQQGYSVPLSFGQGTKLEIK is ____.
9.77

All values here come from patent US20230416363A1.
